Origin of values: patent US20200002436A1

Target: T1, human recombinant NKG2D-Fc (human, UniProt P26718 73-216)
T1 construct: extracellular domain; also called recombinant human NKG2D-Fc; NKG2D-Fc fusion protein; not shown: human IgG1 Fc domain
T1 sequence (looked up): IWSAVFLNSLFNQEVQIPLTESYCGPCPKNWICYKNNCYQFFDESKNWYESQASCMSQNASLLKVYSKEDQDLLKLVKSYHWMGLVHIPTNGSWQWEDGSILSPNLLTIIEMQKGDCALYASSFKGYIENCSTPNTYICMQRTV
Assay: ELISA on coated NKG2D-Fc;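 note: titrated NKG2D binders added to plates coated with human, mouse or cynomolgus NKG2D ectodomain–human IgG1 Fc fusions, detected by HRP anti-human kappa antibody with TMB, absorbance at 450 nm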
EXPERIMENTAL_ENDPOINT: binding result

ADI-29401 (antibody, V domains shown) VH: QVQLQQWGAGLLKPSETLSLTCAVYGGSFSGYYWSWIRQPPGKGLEWIGEIDHSGSTNYNPSLKSRVTISVDTSKNQFSLKLSSVTAADTAVYYCARARGPWSFDPWGQGTLVTVSS VL: DIQMTQSPSTLSASVGDRVTITCRASQSIGSWLAWYQQKPGKAPKLLIYKASSLESGVPSRFSGSGSGTEFTLTISSLQPDDFATYYCQQYDIYPTFGGGTKVEIK    binds
